Attribution: ChEMBL document CHEMBL1857833

Kindly supply the reported remaining at 1 h, 1 µM values for the records listed here.
- protocolNotes: DNDI: % of compound remaining in mouse S9 microsomes at a concentration of 1uM after 60 mins
- Type: ADME, subcellular, Liver, S9 fraction
Numbers only, in %.

compound	propertyLabel	observedValue
COc1ccccc1/C(=N/O)NC1CCCCC1	remaining at 1 h, 1 µM	1.05
CCCCCC(C)NCc1coc(-c2ccc(Oc3ccccc3)cc2)n1 (stereo unspecified)	remaining at 1 h, 1 µM	59.9
CCCCc1ccc(-c2nc(CNCc3c(OC)cccc3OC)co2)cc1	remaining at 1 h, 1 µM	18.7

Report remaining at 1 h, 1 µM for each item below.
1. COc1ccc(/C(=N/O)Nc2cccc(C(F)(F)F)c2)cc1
2. CCCCc1ccc(-c2nc(CNCCC3CCCN3C)co2)cc1 (stereo unspecified)
3. COc1cc(C)ccc1Oc1ncccc1/C(=N/O)NC1CCCCC1

1: 0; 2: 57.4; 3: 18.3

----------
- protocolNotes: DNDI: Solubility in phosphate buffered saline at pH7.4 measured by nephelometry at room temperature (NEPH-RT)
- Assay type: physicochemical
- statedConditions: pH 7.4
propertyLabel: log10 of solubility kinetic (log10 of the value in µM)
The common logarithm of solubility kinetic in µM is what is listed.

// known answers, use as guide
molecule	log10 of solubility kinetic
CC(C)CNC(CCc1ccccc1)c1nc(Cc2ccccc2)c(N2CCCCC2)o1 (configuration not stated)	0.78
CC(C)(C)CN/C(=N\O)c1ccccc1-c1ccccc1	1.70
COc1cccc(OC)c1CNCc1coc(-c2ccc(C(C)(C)C)cc2)n1	0.00
Cc1cc(NCCCN2CCOCC2)n2nc(-c3cccc(F)c3)cc2n1	1.40
O/N=C(\Nc1ccccc1)c1ccccc1-c1ccccc1	1.40

// batch mode: one log10 of solubility kinetic value per listed entry
1. Fc1ccc(-c2cc3nc(-c4ccccc4)cc(NC4CCNCC4)n3n2)cc1
2. Cc1ccc(CNC(c2nc(Cc3ccccc3)c(N3CCOCC3)o2)C2CCCCC2)cc1 (configuration not stated)
3. Fc1ccc(-c2cc3nc(-c4ccccc4)cc(N4CCNCC4)n3n2)cc1
4. CCCCCC(C)NCc1coc(-c2ccc(OC(C)CC)cc2)n1 (configuration not stated)
5. O/N=C(\CNC1CCCCC1)c1ccccc1

1.11
0.48
0.48
0.48
1.40

----------
- protocolNotes: DNDI: Cytotoxicity against L929 mouse fibroblasts, 72 hour.
- Type: toxicity, cell-based
- statedConditions: mouse, L929 mouse fibroblasts
I'd be grateful if you could share measured IC50 at 72 h for these entries.

// below: answered molecules
molecule	observedValue
CCCCc1ccc(-c2nc(C(C)(C)C)co2)cc1	28.7 µg/mL
Fc1ccc(-c2cc3nc(-c4ccccc4)cc(NCCN4CCCCC4)n3n2)cc1	> 10 µg/mL
CCCCCC(C)NCc1coc(-c2ccccc2OCC)n1 (configuration not stated)	7.79 µg/mL
CCCCc1ccc(-c2nc(CC)co2)cc1	6.2 µg/mL
COc1ccccc1C(=O)c1nc(-c2ccccc2)oc1N	> 10 µg/mL
CCCCCC(C)NCc1coc(-c2c(F)cccc2F)n1 (configuration not stated)	18.7 µg/mL
C[C@H]1C(NCc2coc(-c3ccc(Cl)cc3)n2)C[C@@H]2C[C@H]1C2(C)C (some centres not stated)	< 3.13 µg/mL
CN(C)CCCNCc1coc(-c2ccc(OCCc3ccccc3)cc2)n1	> 10 µg/mL
CCCCc1ccc(-c2nc(CNCC(O)CN)co2)cc1 (configuration not stated)	2.91 µg/mL
COc1cccc(/C(=N/O)NC2CCCCC2)c1	> 10 µg/mL

Your task in this section: give IC50 at 72 h for each listed record.
1. Fc1c(F)c(F)c(CO/N=C/c2ccccc2-c2ccccc2)c(F)c1F
2. O/N=C(/NC1CCCCC1)c1cccnc1Oc1ccc(F)cc1

1: > 10 µg/mL; 2: > 10 µg/mL
